Reference for the values: the array DNA melting data of Ke et al. (doi:10.1101/2024.01.08.574731)

test: melting temperature; fluorescence melt of hairpins on a sequencing array, two-state fit, raised by 9.35 °C to match UV melts; conditions: sodium 0.088 M
Values of Tm strictly less than 40 °C map to satisfied, and values of at least 40 °C map to not satisfied.

• GCCTTGGGAAACCAAAGC ((.((((....)))).)) = satisfied
• GTTTTTGCGAAAGCAAAC (((..(((....)))))) = satisfied
• GGCAGAGGAAACTCCGCC (((.(((....))).))) = not satisfied
• GGGGCCGAAAGGCTACCC ((((((....)))..))) = not satisfied
• GGGGCAGCGAAAGCTCCC (((..(((....)))))) = not satisfied
• CGCTGCGGAAACGCGCG (((.(((....)))))) = not satisfied
• GCCCTGCGAAAGCGGTGC ((.(.((....)).).)) = not satisfied
• GCGTCTCACGC ((((...)))) = not satisfied
• GGACTTCGAAAGAATCC (((.(((....)))))) = satisfied
• GACACCGAAAGGTTCGTC ((((((....)))..))) = not satisfied
• GTGATATCGAAAGATCAC (((..(((....)))))) = satisfied
• GGGCATCGAAAGATTCCC (((.(((....))).))) = not satisfied
• GTCAGTGGAAACATTGGC (.((.((....)).)).) = satisfied
• GCACTGCGAAAGCTGCGC ((.(.((....)).).)) = not satisfied
• GCAAGTCCGAAAGGATGC (((..(((....)))))) = satisfied
• GATCGACACTTCGATC ((((((....)))))) = not satisfied
• GTCAGGGGAAACCCTGAC (((((((....))))))) = not satisfied
• GACTAGCGAAAGCTCGTC (((.(((....))).))) = not satisfied
• GCAAACACGAAAGTGTGC (((..(((....)))))) = not satisfied
• CGCTCGGAAACGACCGCG ((((((....)))..))) = satisfied
• GCTGTGCGAAAGCCCGGC ((.(.((....)).).)) = not satisfied
• GGCCAACGAAAGTTGCC (((.(((....)))))) = not satisfied
• GCGCAACGAAAGTTACGC (((.(((....))).))) = not satisfied
• GTAGCCGAAAGGCTGTAC ((((((....)))..))) = satisfied
• GTCGTTGGAAACAATGGC (.(.(((....))).).) = satisfied
• GATCCCGAAAGGGAAATC ((((((....)))..))) = satisfied
• GCCGTGGGAAACTGCGGC ((((..(....)..)))) = not satisfied
• GCCAGGCGAAAGCCCGGC (((.(((....))).))) = not satisfied
• GGTACGCCGAAAGGCACC (((..(((....)))))) = satisfied
• GATCGTAGCACGATC ((((((...)))))) = not satisfied
• GATCAGTCGTCTGATC ((((((....)))))) = not satisfied
• GATCGAGGCTCGATC ((((((...)))))) = not satisfied
• GATAAAGCGAAAGCTATC (((..(((....)))))) = satisfied
• GCTCTGGGAAACCAGAGC (((((((....))))))) = not satisfied
• GCAACGCGAAAGCCCTGC (((..((....))..))) = satisfied
• GTGCAGAAATGCAC (((((....))))) = not satisfied
• GTGTACGGAAACATACAC (((((.(....).))))) = satisfied
• GATCAGGGAAACCTGACC (.(((((....))))).) = satisfied
• GCAGGCGAAAGCCATTGC ((((((....)))..))) = not satisfied
• GTCCAGGAAACTGGAC ((((((....)))))) = not satisfied
• GATCTCAATCGAGATC ((((((....)))))) = not satisfied
• GGCCACGAAAGTGTAGCC ((((((....)))..))) = not satisfied
• GACAGCCCGAAAGGGGTC (((..(((....)))))) = satisfied
• GCACTGGCGAAAGCCTGC (((..(((....)))))) = not satisfied
• GCTTTGCGAAAGCACTGC ((..(((....)))..)) = not satisfied
• GAGGTACGAAAGTACTC (((.(((....)))))) = not satisfied
• GTTCGCGAAAGCGGCAAC ((((((....)))..))) = satisfied
• CGAAACGGAAACGTTCG (((.(((....)))))) = not satisfied
• GTGGTAGGAAACTACCGC (.(((((....))))).) = not satisfied
• GGTGTTCGAAAGAAACC (((.(((....)))))) = satisfied
